The origin of these recorded values is paper PMC10192418.

B1: linear peptide 3 [modified: 5(6)-carboxyfluorescein on the N-terminus; 5(6)-carboxyfluorescein on the N-terminus] / B-RCAL (BÜHLMANN recombinant calprotectin; His6-linker-S100A9-linker-S100A8) [human] (parent)
chain 1: RSPESVAFPMFQSHWYSG
chain 2: MTCKMSQLERNIETIINTFHQYSVKLGHPDTLNQGEFKELVRKDLQNFLKKENKNEKVIEHIMEDLDTNADKQLSFEEFIMLMARLTWASHEKMHEGDEGPGHHHKPGLGEGTPLEVLFQGPMLTELEKALNSIIDVYHKYSLIKGNFHAVYRDDLKKLLETECPQYIRKKGADVWFKELDINTDGAVNFQEFLILVIKMGVAAHKKSHEESHKE

# Variants of: B1
# protocolNotes: fluorescence polarisation
# assaySetup: with B-RCAL (BÜHLMANN recombinant calprotectin; His6-linker-S100A9-linker-S100A8) [human]; one measurement

{"seqText": "chain 1 RSPESVAFPMFASHWYSG", "Kd (nM)": 27}
{"seqText": "chain 1 RSAESVAFPMFQSHWYSG", "Kd (nM)": 28}
{"seqText": "chain 1 RSPESAAFPMFQSHWYSG", "Kd (nM)": 39}
{"seqText": "chain 1 RSPESVGFPMFQSHWYSG", "Kd (nM)": 29}
{"seqText": "chain 1 ASPESVAFPMFQSHWYSG", "Kd (nM)": 32}
